Please provide measured TGI for the entries that follow.
Tested on: OVCAR-5 ovarian
Assay: NCI tumour cell line growth inhibition, 48 h
Numbers only, in µM.

MOLECULE	SYSTEM_UNDER_TEST	TGI (µM)
CCc1ccc2c(c1)N(CCO)C1=C(C(=O)OC1)C2c1cccc(Br)c1 (stereo not drawn)	OVCAR-5 ovarian	20.8

Here is another molecule to look at.
QUERY: # query: TGI of entry CCCCn1c(N)c(-c2nc3ccccc3o2)sc1=S
RESULT: 53.6

###

Task for the reader: assign each of the following compounds its reported TGI.
System: NCI-H226 lung
Test: NCI tumour cell line growth inhibition, 48 h

The examples below pair each entry with its known result.
COMPOUND	TGI
COc1ccc2c(c1)N(CCO)C1=C(C(=O)OC1)C2c1cccc(F)c1 (centres undefined)	> 50 µM
O=C(CSc1nnc(Cc2ccccc2)o1)Nc1ccccc1	> 100 µM
CN1C(=O)N(C)C2C1NN=c1s/c(=C\c3ccc(C(F)(F)F)cc3)c(=O)n12 (centres undefined)	> 100 µM

Could you now look at the following compound, please?
QUERY: I am curious: what TGI value has been reported for O=C1CCCN1C(=O)CS(=O)(=O)c1ccccc1 ?
RESULT: > 100 µM

Hello, the source for this data is PubChem BioAssay (NCI), in case you need it.
